testTarget: the molecule itself
measurementProtocol: cross-linking; disulfide cross-linking of single-cysteine MBP-YG box fusions, 5 μM, 20 mM Tris-HCl pH 7.4, 200 mM NaCl, 1 mM EDTA, 10 mM maltose, 160 μM diamide, 1 h, 20°C; non-reducing SDS-PAGE
outcomeMeasure: binding result

• DSLDDADALGCMLISWYMSGYHTGYYMGFRQNQKEGRASHSLN (domain or fragment, human, UniProt Q16637 252-294, looked up, human SMN YG box, residues 252-294; source: E. coli BL21(DE3), purified (amylose resin); not shown: MBP, N-terminal, kept) [MBP-hsSMN^252-294(C289A, S262C)] = binds
• DSLDDADALGSMLISWYMSGYHTGYYMGFRQCQKEGRASHSLN (domain or fragment, human, UniProt Q16637 252-294, looked up, human SMN YG box, residues 252-294; also called hsSMN^N283C; source: E. coli BL21(DE3), purified (amylose resin); not shown: MBP, N-terminal, kept) [MBP-hsSMN^252-294(C289A, N283C)] = binds
• DSLDDADALGSMLISWYMSGYHCGYYMGFRQNQKEGRASHSLN (domain or fragment, human, UniProt Q16637 252-294, looked up, human SMN YG box, residues 252-294; also called hsT274C; source: E. coli BL21(DE3), purified (amylose resin); not shown: MBP, N-terminal, kept) [MBP-hsSMN^252-294(C289A, T274C)] = binds

The reported measurements were obtained from paper PMC8287954.
